From: patent EP4799624A2

- method summary: in vivo
- condition set: mouse, po
assay readout: NOAEL

// lookup NOAEL for Cc1c(-c2ccc(O)cc2)n(Cc2ccc(OCCN3CCCCC3)cc2)c2ccc(O)cc12 [Pipendoxifene]
≥ 750 mg/kg/day
